# z-score of subpopulation abundance values compiled below
# Test system: Saccharomyces cerevisiae BY4741 SeMeCo community
# test.description: z-score of subpopulation abundance vs DMSO median, subpopulation auxotrophic for HLM; higher = larger share of this subpopulation than in DMSO controls
# condition.notes: 10 µM; 24 h; SM minimal medium; subpopulation (auxotrophy): HLM
Where a name gives a salt, the structure may show the parent alone.
Keep it simple and answer with nothing but the number.

Some compounds with known z-score of subpopulation abundance results, for comparison:
Q. Recall the reported z-score of subpopulation abundance of C[C@H]1COc2c(C3(N)CC3)c(F)cc3c(=O)c(C(=O)O)cn1c23 [Pazufloxacin mesylate] on Saccharomyces cerevisiae BY4741 SeMeCo community and write it down.
A. -0.08

Q. Enter measured z-score of subpopulation abundance, system Saccharomyces cerevisiae BY4741 SeMeCo community, for the compound shown: CCC[S+]([O-])c1ccc2[nH]c(NC(=O)OC)nc2c1 (configuration not stated) [Albendazole Oxide]
A. -0.85

Q. State the measured z-score of subpopulation abundance (Saccharomyces cerevisiae BY4741 SeMeCo community) of CN1CCc2cc3c(cc2C(=O)Cc2ccc4c(c2C1)OCO4)OCO3
A. 0.14

Q. State z-score of subpopulation abundance (Saccharomyces cerevisiae BY4741 SeMeCo community) of C[C@H]1[C@H](NC(=O)/C(=N\OC(C)(C)C(=O)O)c2csc(N)n2)C(=O)N1S(=O)(=O)O .
A. 1.34

Continuing:
Q. Recall the reported z-score of subpopulation abundance of O=C(c1ccccc1)c1ccc2n1CCC2C(=O)O (configuration not stated) [Ketorolac tromethamine salt] when tested on Saccharomyces cerevisiae BY4741 SeMeCo community.
A. -0.09

Q. Given Cc1noc(NS(=O)(=O)c2ccc(N)cc2)c1C , report its z-score of subpopulation abundance on Saccharomyces cerevisiae BY4741 SeMeCo community.
A. 1.44

Q. For Saccharomyces cerevisiae BY4741 SeMeCo community, give z-score of subpopulation abundance of the listed compound: CCCCCCCCCCCCCCCCCCOP(=O)([O-])OC1CC[N+](C)(C)CC1
A. 31.5
